Listed next: entries and their corresponding S. aureus MBC.
Test system: S. aureus (ATCC 29213, MSSA)
conditions_used: ATCC 29213, 20 h
Residues, ends and D or L forms follow the SMILES beside them. *: point of attachment. Heptanoyl = CCCCCCC(=O)*; Hexanoyl = CCCCCC(=O)*
Quick note: give the figure in µM, leave out the unit.

CCCCCC(=O)N[C@@H](CC(C)C)C(=O)NCC(=O)N[C@@H](CC(C)C)C(=O)N[C@@H](CCCCN)C(=O)N[C@@H](CC(C)C)C(=O)N[C@@H](CC(C)C)C(=O)N[C@@H](Cc1c[nH]c2ccccc12)C(=O)N[C@@H](CO)C(=O)N[C@@H](C)C(=O)N[C@@H](Cc1ccc(O)cc1)C(=O)N[C@@H](CCCCN)C(=O)N[C@@H](Cc1c[nH]cn1)C(=O)N[C@@H](CCCNC(=N)N)C(=O)N[C@@H](CCCCN)C(=O)N[C@H](C(=O)N[C@@H](CC(C)C)C(N)=O)[C@@H](C)O [L-6-C6-Leu] (Hexanoyl-LGLKLLWSAYKHRKTL-NH2) ... 3.1

IN: Respond only with S. aureus MBC recorded for CCCCCCC(=O)N[C@@H](CC(C)C)C(=O)NCC(=O)N[C@@H](CC(C)C)C(=O)N[C@@H](CCCCN)C(=O)N[C@@H](CC(C)C)C(=O)N[C@@H](CC(C)C)C(=O)N[C@@H](Cc1c[nH]c2ccccc12)C(=O)N[C@@H](CO)C(=O)N[C@@H](C)C(=O)N[C@@H](Cc1ccc(O)cc1)C(=O)N[C@@H](CCCCN)C(=O)N[C@@H](Cc1c[nH]cn1)C(=O)N[C@@H](CCCNC(=N)N)C(=O)N[C@@H](CCCCN)C(=O)N[C@H](C(=O)N[C@@H](CC(C)C)C(N)=O)[C@@H](C)O [L-6-C7-Leu] (Heptanoyl-LGLKLLWSAYKHRKTL-NH2)
OUT: 1.5
